target: HLA-DQ molecule DQB1*0503 (human); experiment: competition: inhibition of radiolabeled peptide binding to purified HLA
outcomeMeasure: IC50 (µM)
# value in µM; strip the unit string

> print(dat)
                                     binder  assayvalue
1  GGRLAFQEFMIVPCE [Alt a 6 peptide, position 161, Peptide ID 3324.0073]        4.94

### Prompt Tell me its IC50 given INELIASGSEKLASV [Alt a 5 peptide, position 51, Peptide ID 3324.0065] as the entry.
### Response 7.54
